Hey, just so you know, these numbers are from the EternaBench riboswitch data.

system: MS2 coat protein; assay: apparent Kd, MS2 coat protein; higher = weaker binding; RNA-MaP array; FMN 200 µM where present; settings: ligand present: flavin mononucleotide; designed as: ON switch for flavin mononucleotide
Entry class follows apparent Kd: lo: < 10 nM; med: ≥ 10 nM and < 40 nM; hi: ≥ 40 nM

Lab note: sort GUGUACAUUCGAGGAUAUCGGAGAGAGAUCAUUCGAGAAGGCGAUUCAUGAUGUAUUAUCCUGGACAUGAGGAUCACCCAUGUG into the matching apparent Kd band. hi

And for AAACCACAUGAGGAUCACCCAUGUGAUAAAAGCAUAGGAUAUCUGGAUGUGAGAGGCGGCAGAGAAGGAUGCACGC ? hi

And for AGAUGUGAACAUGAGGAUCACCCAUGUGACUAGGUAUAUUUCAGAAGGCAUUUAUAGAGAUUAUAUGAGGAUAUGAAGUUUUAA ? lo

And for UUAUGAUUAAGAGGAUAUAUACAACAUGAGGAUCACCCAUGUACCCAUGUAGUAGAAGGCUUAUUUUUAUAUAAUAAUAUAAUU ? hi

And for UUGGACGUCGUAGGAUAUGUAGGAUAUUCCUACAUGAGGAUCACCCAUGUUGACAUGGAAGAAGGACAGGAGGACGAUGUCCAU ? lo

And for CAGCGAUAGCUGAACAAUCUAUCUGAGGAUAUCAUGAAUAAACAUGAGGAUCACCCAUGUAAAUAUGAGAAGGCAGAUAGAUUG ? lo

And for GGAGCCGGCCUAGGAUAUUUCAUAAUAUUACAUGAGGAUCACCCAUGUAGGCCAGAAGGCCUUGGGAAGAAGGAGGUCGGCUCC ? med

And for AGCUAGUACCGAGGAUAUACAUACAUGAGGAUCACCCAUGUAUACAUGAAUUUAUGAGACUACAUGUAGAAGGCGGUACUAGCA ? med

And for ACUAUAUAUGAGAAGGUGAAGUGGAAACAUGAGGAUCACCCAUGUAAUACGAAGCGUAUUUUUAUCAAGGAUAUCAUAUAUAGA ? lo

And for GCGUUCAUGUAGAAGGUACCUACAACAUAUUAUAAACGCUAGACACAUGAGGAUCACCCAUGUUGUAAGGAUAUACAUGAACGC ? med

And for UUCGGACUAUCAGGAUAUGGUGUAGCCUAGUAAAGGACAUGAGGAUCACCCAUGUACCAUUGGUGCCAGAAGGGAUGAUCCUAC ? hi

And for ACGGAACAUGAGGAUCACCCAUGUAUCUGAAAUAUGGACUCACAGGAUAUCCAGAGUUGCCAAUCGGAGAAGGGUGACUCCAGA ? med

And for UUACUCAUGUAAGGAUAUGCAGCCGUUUCGGCUGCAGAAGGUACUAUACUACAUGAGGAUCACCCAUGUCUAUAAAAUAAAGAC ? hi
